test: gradient 5% acetonitrile 3 min, to 50% in 2 min, to 85% in 15 min, held 3 min, 100 µL/min; conditions: column: Zorbax Extend-C18 2.1 x 50 mm; eluents: water / acetonitrile, 0.1% formic acid
Listing of recorded RP-LC retention time by entry.
value.kind: RP-LC retention time (s)

- COc1ccc(N2CC(c3nc(-c4ccccc4)no3)CC2=O)cc1OC (centres undefined): 669
- CCn1cc(CCNC(=O)Nc2cccc(Cl)c2)c2cccnc21: 788
- O=C(c1cc(F)ccc1Cl)N1CCN(c2cc(-c3ccc(F)cc3)[nH]n2)CC1: 847
- Cc1ccc(Nc2cc(N3CCC(C(=O)N4CCC5(CC4)OCCO5)CC3)ncn2)cc1: 645
- Cc1ccc(S(=O)(=O)N2C[C@@H](F)C[C@H]2C(=O)N2CCOCC2)cc1F: 710
- CC(C)Cn1cc2c3c(cccc31)CN(C(=O)Nc1ccc(F)cc1)CC2: 1070
- Cc1ccccc1CNC(=O)C1CCCN(c2nccnc2Sc2ccccc2)C1 (centres undefined): 1200
- CC(=O)Nc1ccc(N2C(=O)c3cccc4c([N+](=O)[O-])ccc(c34)C2=O)cc1: 714
- CC1=C(c2cccc(Cl)c2)S(=O)(=O)N=C1N1CCCN(C(=O)c2ccsc2)CC1: 851
- O=C(Nc1ccc(F)cc1)N1CCN(Cc2nc3cccnc3n2-c2ccc(F)cc2)CC1: 624
- Cc1ccc(-n2nc3c(N4CCCC(C(=O)N5CCc6ccccc65)C4)nnc(C)c3c2C)cc1 (centres undefined): 830
- CNC(=O)Nc1ccc(C2(C(=O)NC3CCCC3)CCC2)cc1: 692
- COCCN(C)C(=O)c1cn(C2CN(C(=O)NCC(C)C)C2)nn1: 624
- CC(C)OCCCNC(=O)c1nnc(-c2ccc(S(=O)(=O)N3CCCCC3)cc2)o1: 917
- O=C(Nc1ccccc1F)C1CCN(c2cc(N3CCCCC3)ncn2)CC1: 689
- CC(C)c1nn2c(S(=O)(=O)NCc3cccs3)c(C(C)C)nc2s1: 966
- Cc1noc([C@@H]2CN(Cc3c(F)cccc3Cl)C[C@H]2CO)n1: 605
- COc1ccc(CNC(=O)C2CCCN(c3ccc(=O)n(-c4cccc(Cl)c4)n3)C2)c(OC)c1 (centres undefined): 876
- O=C(/C=C/c1cccnc1)c1ccccc1O: 817
- O=C(Cc1cc(-c2ccccc2)on1)NCCN1CCOCC1: 566
- CN(CCCNC(=O)C1CCCN(C(=O)c2cccc(Cl)c2)C1)c1ccccc1 (centres undefined): 676
- O=C(Nc1ccc(Cl)cc1)N1CCc2nc(-c3ccc(Cl)cc3)ncc2C1: 1130
- O=S(=O)(c1ccc(-c2nnc(C3CCCC3)o2)o1)N1CCN(c2ccccn2)CC1: 726
- CCOc1ccccc1CNC(=O)C1CCN(S(=O)(=O)c2cn(CC)cn2)CC1: 739
- Cc1cccc(-c2noc(C3CCCN3C(=O)NCCc3ccccc3)n2)c1 (centres undefined): 593
- c1ccc(-c2nc(-c3cn(-c4ccccc4)nn3)no2)cc1: 1020
- O=C(NC1CCCCC1)N1CCC(CCc2nc(C3CCOCC3)no2)CC1: 709
- COc1ccc(N2CC(c3noc(-c4ccccc4OC)n3)CC2=O)cc1 (centres undefined): 858
- COc1ccc(NC(=O)CSc2ccc(N3CCCC(C(=O)NC4CC4)C3)nn2)cc1OC (centres undefined): 596
- O=C(CSc1cc(-c2nc(-c3ccccc3)no2)ccn1)N1CCCC1: 941
- COc1cccc(CCN2CC(=O)N(c3cccc(C)c3)[C@@H]3CS(=O)(=O)C[C@@H]32)c1: 849
- O=C(c1c(F)cccc1F)N1CCc2nc(-c3ccccc3)ncc2C1: 909
- Fc1ccc(-c2noc(CCc3nnc4ccc(N5CCN(C6CCCCC6)CC5)nn34)n2)cc1: 653
- O=c1c2cc(-c3ccc4c(c3)OCO4)nn2ccn1Cc1nc(-c2cccc(Cl)c2)no1: 1080
- COc1cccc2cc(C(=O)N3CC(c4nc(-c5cccs5)no4)C3)oc12: 856
- O=C(Nc1ccc(Cl)cc1)N1CCCC(c2nnc(Cc3ccc(F)cc3)o2)C1 (centres undefined): 877
- COc1ccc(CNC(=O)c2ccc3c(c2)NC(=O)C2CCCCN32)cc1OC (centres undefined): 719
- CCCCc1ccc(NC(=O)N2CCCC2c2nncn2C2CCCC2)cc1 (centres undefined): 864
- CCOc1ccc(-n2nnc(C(=O)O)c2COC)cc1: 734

====

Listing of recorded RP-LC retention time by entry.
test: gradient 5% acetonitrile 3 min, to 50% in 2 min, to 85% in 15 min, held 3 min, 100 µL/min; conditions: column: Zorbax Extend-C18 2.1 x 50 mm; eluents: water / acetonitrile, 0.1% formic acid
value.kind: RP-LC retention time (s)

• CCOC(=O)c1nc(Nc2cccc(SC)c2)c2ccccc2n1 = 940
• CN(CCCNC(=O)C1CCN(c2nnc3ccc(Cl)cn23)CC1)c1ccccc1 = 606
• COc1ccc(NS(=O)(=O)c2cc3n(c2)CCN(C(C)C)C3=O)cc1 = 717
• CCc1cc(=O)n(CC(=O)Nc2ccc(C)c(C)c2)c(N)n1 = 640
• c1ccc(-c2ccc3c(c2)NC(C2Nc4cc(-c5ccccc5)ccc4O2)O3)cc1 (centres undefined) = 1240
• COc1cccc(NC(=O)C2c3ccccc3C(=O)N3CCc4cc(OC)c(OC)cc4C23)c1 (centres undefined) = 784
• COc1cc(NC(=O)Cn2nc3c4cc(F)ccc4ncn3c2=O)cc(OC)c1 = 697
• COCCNC(=O)c1ccc2c(c1)N(Cc1ccc(C)cc1)C(=O)CO2 = 748
• Cc1ccccc1NS(=O)(=O)c1cc2c3c(c1)CCC(=O)N3CCC2 = 967

====

assay: gradient 5% acetonitrile 3 min, to 50% in 2 min, to 85% in 15 min, held 3 min, 100 µL/min; conditions: column: Zorbax Extend-C18 2.1 x 50 mm; eluents: water / acetonitrile, 0.1% formic acid
value.kind: RP-LC retention time

* CCN1C=C(C(=O)OCc2ccccc2F)C(C)=NS1(=O)=O | 895 s
* CCOc1ccc(NC(=O)C2CCN(S(=O)(=O)c3cc(-c4noc(C)n4)sc3C)CC2)cc1 | 1000 s
* COc1ccc(OC)c(S(=O)(=O)N2CCc3nc[nH]c3C2)c1 | 554 s
* CC(C)c1noc(-c2cc(=O)n(CC(=O)Nc3ccc(Cl)cc3F)c3ccccc23)n1 | 1100 s
* O=C(NC1(c2nc(-c3ccccc3)no2)CCCCC1)c1cccc(Cl)c1 | 1230 s

====

assay: gradient 5% acetonitrile 3 min, to 50% in 2 min, to 85% in 15 min, held 3 min, 100 µL/min; details: column: Zorbax Extend-C18 2.1 x 50 mm; eluents: water / acetonitrile, 0.1% formic acid
value.kind: RP-LC retention time (s)

* O=c1ccc(-c2nc(-c3ccc(F)cc3)no2)nn1Cc1ccccc1F | 1070
* COc1ccc(CNC(=O)Cn2ccc3ccc(N4CCOCC4)nc32)cc1 | 831
* O=C(NCc1ccc(Cl)cc1)c1ccc2c(c1)nc1n2CCN(Cc2ccccn2)C1=O | 675
* Cc1nnc(NC(=O)CSc2nnc(C3COc4ccccc4O3)o2)s1 (stereo not drawn) | 699
* O=C(NCCn1nnc2cc(C(=O)N3CCCC3)ccc21)Nc1ccc(Cl)cc1 | 792
* O=C(NCc1cccnc1)C1CCCN(C(=O)c2cc3ccsc3n2Cc2cccc(Cl)c2)C1 (stereo not drawn) | 711
* COc1cc(OC)c(NC(=O)N2CCCC2c2nncn2C2CCCC2)cc1Cl (stereo not drawn) | 668
* CC(NC(=O)CN1CN(c2ccccc2)C2(CCN(C(=O)CC(C)(C)C)CC2)C1=O)c1ccccc1 (stereo not drawn) | 931
* O=C(c1csc(N2CCN(c3ccc(F)cc3)CC2)n1)N1CCCCC1 | 1000
* Cc1ccc(-c2nc3cnccn3c2Nc2ccccc2C)cc1 | 969
* COC(=O)c1cc(C)nc2c1c(=O)n(Cc1cccc(C)c1)c(=O)n2Cc1ccco1 | 1170
* CCOc1ccc(-c2ccc(=O)n(Cc3nc(-c4cccc(OC)c4)no3)n2)cc1 | 949
* Cn1nnc2ccc(-c3noc(-c4cccc(Cl)c4)n3)cc21 | 1120
* CCCCC(Sc1nc(=O)[nH]c(C)c1C(=O)OCC)C(=O)O (stereo not drawn) | 663
* Cc1ccc2c(c1)N(S(C)(=O)=O)CCC(C(=O)Nc1ccc(C(F)(F)F)cc1)O2 (stereo not drawn) | 1090
* Cc1nn(CC(=O)NCCC(C)C)c(=O)c2nc(-c3ccccc3)sc12 | 871
* Cc1nn(Cc2ccc(C(=O)NC(C)C)cc2)c(C)c1S(=O)(=O)N1CCC(C)CC1 | 880
* Cc1ccc2c(c1)N(Cc1ccccc1)N=C(C(=O)N1CCOCC1)S2(=O)=O | 832
* Cn1cc(NC(=O)N2CCN(c3ccccn3)CC2)c2ccccc2c1=O | 538
* CN1c2ccc(Cl)cc2C(=O)NC12CCN(C(=O)c1cccc(F)c1)CC2 | 808
* Cc1ccc(CN2CCN(C3CCN(C(=O)Nc4ccc5c(c4)OCO5)CC3)C(=O)C2=O)cc1 | 696
* Cc1cc2oc(=O)c(C)c(C)c2c2c1C(=O)CC(c1ccc3c(c1)OCO3)O2 (stereo not drawn) | 1110
* COc1ccc(-c2nnc(COc3ccc(NC(=O)c4ccc(C)s4)cc3)o2)cc1 | 921
* O=C(CSc1ncnc2ccccc12)NCCc1ccccc1 | 706
* COc1ccc(-c2cc3n(n2)CCCN(C(=O)C2CCCO2)C3)cc1 (stereo not drawn) | 700
* Cn1nc(-c2nc(C3CC3)no2)c2c1CCN(S(=O)(=O)c1cccc(F)c1)C2 | 920
* Cc1cccc(Nc2cc(C)nc3ccnn23)c1 | 613
* COc1ccc(-c2noc(Cn3ccn(-c4cccc(Cl)c4)c(=O)c3=O)n2)cc1 | 866
* O=C(NC1CC1)c1ccc(OCC2CCCN2C(=O)c2cccc(F)c2)cc1 (stereo not drawn) | 778
* CCCC(=O)N1CCC(C(=O)Nc2ccc(OCC)cc2)CC1 | 718
* Cc1nccn1C1CN(C(=O)Nc2ccccc2)C1 | 568
* CC(Cc1ccco1)NC(=O)c1nc(Nc2ccc(F)cc2)c2ccccc2n1 (stereo not drawn) | 855
* CSc1cccc(NC(=O)C2CCN(c3cnc4nc(C)c(C)nc4c3)CC2)c1 | 758
* CCS(=O)(=O)c1ccc2c(c1)N(Cc1nc(-c3cccc(OC)c3)no1)C(=O)CO2 | 883
* Cn1cc(-c2cc3n(n2)CCCN3C(=O)CCC(=O)NCCCN2CCCC2)c2ccccc21 | 620
* Cc1ccc(Cn2c(=O)n(CCNC(=O)C3CCCO3)c3ncccc32)cc1 (stereo not drawn) | 726
* CCCc1ccc(S(=O)(=O)N2CCc3c(c(-c4nnc(-c5ccccc5)o4)nn3C)C2)cc1 | 1090
* Cc1cc(C(=O)N2CCC(c3cc(N)on3)CC2)c(C)o1 | 667
